Measured Ratio Ki of individual entries
Organism: Rattus norvegicus
Assay: Selectivity ratio of Ki for delta opioid receptor in Wistar rat brain membranes to Ki for mu opioid receptor in Wistar rat brain membranes
Assay type: cell membranes
Details: Membrane
Please state the value as a number alone, without comment.

Consider "CC(C)C[C@@H]1NC(=O)[C@H](Cc2ccccc2)NC(=O)CNC(=O)[C@H](NC(=O)[C@@H](N)Cc2ccc(O)cc2)CCCN/C(N(C)C)=N\CCC[C@@H](C(N)=O)NC1=O" . Its measured Ratio Ki is 10.2

Consider "CC(C)C[C@@H]1NC(=O)[C@H](Cc2ccccc2)NC(=O)CNC(=O)[C@H](NC(=O)[C@@H](N)Cc2ccc(O)cc2)CCCN/C(N)=N\CCC[C@@H](C(N)=O)NC1=O" . Its measured Ratio Ki is 5.9

Consider "CS/C1=N/CCC[C@@H](C(N)=O)NC(=O)[C@H](CC(C)C)NC(=O)[C@H](Cc2ccccc2)NC(=O)CNC(=O)[C@H](NC(=O)[C@@H](N)Cc2ccc(O)cc2)CCCN1" . Its measured Ratio Ki is 9.1

Consider "C/N=C1/NCCC[C@@H](C(N)=O)NC(=O)[C@H](CC(C)C)NC(=O)[C@H](Cc2ccccc2)NC(=O)CNC(=O)[C@H](NC(=O)[C@@H](N)Cc2ccc(O)cc2)CCCN1" . Its measured Ratio Ki is 10.3

Consider "CC(C)C[C@@H]1NC(=O)[C@H](Cc2ccccc2)NC(=O)CNC(=O)[C@H](NC(=O)[C@@H](N)Cc2ccc(O)cc2)CCCNC(=S)NCCC[C@@H](C(N)=O)NC1=O" . Its measured Ratio Ki is 8.3

Consider "CC(C)C[C@@H]1NC(=O)[C@H](Cc2ccccc2)NC(=O)CNC(=O)[C@H](NC(=O)[C@@H](N)Cc2ccc(O)cc2)CCCN/C(N2CCCC2)=N\CCC[C@@H](C(N)=O)NC1=O" . Its measured Ratio Ki is 3.6

###

Target: Mu-type opioid receptor (Rattus norvegicus)
Sequence (P33535 whole entry): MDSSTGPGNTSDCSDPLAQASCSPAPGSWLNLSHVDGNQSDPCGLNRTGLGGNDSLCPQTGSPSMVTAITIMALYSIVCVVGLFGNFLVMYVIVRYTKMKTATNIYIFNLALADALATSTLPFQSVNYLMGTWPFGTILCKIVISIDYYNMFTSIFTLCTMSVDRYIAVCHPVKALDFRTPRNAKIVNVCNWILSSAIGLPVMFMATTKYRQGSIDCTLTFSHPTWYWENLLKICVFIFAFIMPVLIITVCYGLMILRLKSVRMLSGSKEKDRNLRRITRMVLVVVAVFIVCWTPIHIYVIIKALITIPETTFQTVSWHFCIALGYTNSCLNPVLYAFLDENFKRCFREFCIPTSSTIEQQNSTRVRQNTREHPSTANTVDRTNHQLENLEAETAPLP
Assay: Agonist activity at mu opioid receptor in rat brain membranes assessed as stimulation of [35S]GTPgammaS binding after 60 mins in presence of GDP
Assay type: functional, cell membranes
Conditions: read-out: pEC50 (converted)
Measured EC50 of individual entries
Please state the figure in nM; there is no need to write the unit.

The examples below pair each entry with its known result.
NC(=O)[C@@H]1C/N=C(/N2CCCC2)NC[C@@H](NC(=O)[C@@H](N)Cc2ccc(O)cc2)C(=O)NCC(=O)N[C@@H](Cc2ccccc2)C(=O)N1 (stereo in doubt; 13a)
1070
NC(=O)[C@@H]1C/N=C(/N2CCCCC2)NC[C@@H](NC(=O)[C@@H](N)Cc2ccc(O)cc2)C(=O)NCC(=O)N[C@@H](Cc2ccccc2)C(=O)N1 (stereo in doubt; 14b)
4170

Now, please, on to the next compound.
Consider "CS/C1=N/CCC[C@@H](C(N)=O)NC(=O)[C@H](CC(C)C)NC(=O)[C@H](Cc2ccccc2)NC(=O)CNC(=O)[C@H](NC(=O)[C@@H](N)Cc2ccc(O)cc2)CCCN1" . Its measured EC50 is 661

###

Molecular target: Mu-type opioid receptor (Rattus norvegicus)
Experiment: Agonist activity at mu opioid receptor in rat brain membranes assessed as stimulation of [35S]GTPgammaS binding after 60 mins in presence of GDP
Type: functional, cell membranes
Conditions: read-out: pEC50 (converted)
Response field label takes yes (1) when EC50 is strictly below 2000 nM and no (0) in all other cases.

Here's what some known entries look like.
CC(C)C[C@@H]1NC(=O)[C@H](Cc2ccccc2)NC(=O)CNC(=O)[C@H](NC(=O)[C@@H](N)Cc2ccc(O)cc2)CCCNC(=S)NCCC[C@@H](C(N)=O)NC1=O
yes (1)
CN/C1=N/C[C@@H](C(N)=O)NC(=O)[C@H](Cc2ccccc2)NC(=O)CNC(=O)[C@H](NC(=O)[C@@H](N)Cc2ccc(O)cc2)CN1 (stereo in doubt; 10a)
yes (1)
CC(C)C[C@@H]1NC(=O)[C@H](Cc2ccccc2)NC(=O)CNC(=O)[C@H](NC(=O)[C@@H](N)Cc2ccc(O)cc2)CCCN/C(N2CCCC2)=N\CCC[C@@H](C(N)=O)NC1=O
no (0)
NC(=O)[C@@H]1C/N=C(/N2CCCCC2)NC[C@@H](NC(=O)[C@@H](N)Cc2ccc(O)cc2)C(=O)NCC(=O)N[C@@H](Cc2ccccc2)C(=O)N1 (stereo in doubt; 14c)
no (0)
CC(C)C[C@@H]1NC(=O)[C@H](Cc2ccccc2)NC(=O)CNC(=O)[C@H](NC(=O)[C@@H](N)Cc2ccc(O)cc2)CCCN/C(N(C)C)=N\CCC[C@@H](C(N)=O)NC1=O
yes (1)
NC(=O)[C@@H]1C/N=C(/N2CCCCC2)NC[C@@H](NC(=O)[C@@H](N)Cc2ccc(O)cc2)C(=O)NCC(=O)N[C@@H](Cc2ccccc2)C(=O)N1 (stereo in doubt; 14a)
yes (1)

Task: Hello, I'm reviewing records and need to know if EC50 of NC(=O)[C@@H]1C/N=C(/N2CCCC2)NC[C@@H](NC(=O)[C@@H](N)Cc2ccc(O)cc2)C(=O)NCC(=O)N[C@@H](Cc2ccccc2)C(=O)N1 (stereo in doubt; 13b) is below 2000 nM. Could you check?
Result: no (0)

Task: Hello, I'm reviewing records and need to know if EC50 of CN/C1=N/C[C@@H](C(N)=O)NC(=O)[C@H](Cc2ccccc2)NC(=O)CNC(=O)[C@H](NC(=O)[C@@H](N)Cc2ccc(O)cc2)CN1 (stereo in doubt; 10b) is below 2000 nM. Could you check?
Result: yes (1)

Task: Hello, I'm reviewing records and need to know if EC50 of NC(=O)[C@@H]1C/N=C(/N2CCCC2)NC[C@@H](NC(=O)[C@@H](N)Cc2ccc(O)cc2)C(=O)NCC(=O)N[C@@H](Cc2ccccc2)C(=O)N1 (stereo in doubt; 13c) is below 2000 nM. Could you check?
Result: no (0)
